# Tested on: Crabgrass(large) (Digitaria sanguinalis)
# protocol: Preemergence herbicidal activity, Crabgrass(large)
# Format: in vivo
# condition set: pre-emergence, 504 h, rate 280 ppm, visual score after 3 weeks, 100 = complete kill or no germination, read-out: Pre-emergent % control DIGSA
property name: pest or weed control at 280 ppm (%)
Answers are plain numbers, in %.

Example entries and their recorded answers appear below.
# item smiles, property name, units symbol, reported
measured = [
    ("CCc1cc(N)c(Cl)c(C(=O)OC)n1", "pest or weed control at 280 ppm", "%", 0),
    ("CCc1cc(N)c(Cl)c(C(=O)O)n1", "pest or weed control at 280 ppm", "%", 15),
    ("C=Cc1nc(C(=O)OC)c(Cl)c(N)c1F", "pest or weed control at 280 ppm", "%", 95),
]

QUERY: What pest or weed control at 280 ppm value was documented for this compound, Cc1cc(N)c(Cl)c(C(=O)O)n1 ?
RESULT: 20

* * *

# System: Giant Foxtail (Setaria faberi)
# protocol: Postemergence herbicidal activity, Giant Foxtail
# Format: in vivo
# condition set: post-emergence, 336 h, rate 250 ppm, visual score after 2 weeks, 0 = no injury, 100 = complete kill, read-out: Post-emergent % control SETFA
# label = true (1) if pest or weed control at 250 ppm >= 50% else false (0)

The following compounds have reported results that may help.
# compound, label value
data = [
    ("COC(=O)c1nc(C)c(F)c(N)c1Cl [Compound 12]", "true (1)"),
    ("CCc1cc(N)c(Cl)c(C(=O)OC)n1 [Compound 4]", "false (0)"),
    ("CCc1nc(C(=O)O)c(Cl)c(N)c1F [Compound 5]", "true (1)"),
]

Could you now look at the following compound, please?
QUERY: Threshold query (pest or weed control at 250 ppm >= 50%) on CCc1cc(N)c(Cl)c(C(=O)O)n1 [Compound 6]
RESULT: false (0)

* * *

property name: melting point

The examples below pair each entry with its known result.
# item smiles, melting point
records = [
    ("COC(=O)c1nc(C)c(F)c(N)c1Cl", "113 to 114 °C"),
    ("C=Cc1nc(C(=O)OC)c(Cl)c(N)c1F", "68 to 71 °C"),
    ("CCc1nc(C(=O)OC)c(Cl)c(N)c1F", "109 to 110 °C"),
]

Hi team, please reply with melting point for each item in this list.
1. CCc1cc(N)c(Cl)c(C(=O)O)n1
2. CCc1nc(C(=O)O)c(Cl)c(N)c1F

RESULT:
140 to 142 °C
144 to 145 °C

* * *

# Test system: Cocklebur (Xanthium strumarium)
# protocol: Postemergence herbicidal activity, Cocklebur
# Assay type: in vivo
# condition set: post-emergence, 336 h, rate 250 ppm, visual score after 2 weeks, 0 = no injury, 100 = complete kill, read-out: Post-emergent % control XANST
property name: pest or weed control at 250 ppm (%)
Give bare numbers, in %.

# item smiles, units symbol, pest or weed control at 250 ppm
measured = [
    ("CCc1cc(N)c(Cl)c(C(=O)OC)n1", "%", 95),
    ("CCc1cc(N)c(Cl)c(C(=O)O)n1", "%", 98),
    ("COC(=O)c1nc(C)c(F)c(N)c1Cl", "%", 100),
]

For the 8 molecules below, give their pest or weed control at 250 ppm values.
1. CSCc1cc(N)c(Cl)c(C(=O)O)n1
2. COCc1cc(N)c(Cl)c(C(=O)O)n1
3. CCc1nc(C(=O)O)c(Cl)c(N)c1F
4. CCc1nc(C(=O)OC)c(Cl)c(N)c1F
5. Cc1cc(N)c(Cl)c(C(=O)O)n1
6. C=CCc1cc(N)c(Cl)c(C(=O)O)n1
7. C=Cc1nc(C(=O)OC)c(Cl)c(N)c1F
8. C=Cc1cc(N)c(Cl)c(C(=O)OC)n1

RESULT:
1: 85; 2: 80; 3: 100; 4: 100; 5: 70; 6: 85; 7: 100; 8: 80
